The reported numbers originate from the EternaBench riboswitch data.

System: MS2 coat protein
Assay: apparent Kd, MS2 coat protein; higher = weaker binding; RNA-MaP array; FMN 200 µM where present
Settings: ligand present: flavin mononucleotide; designed as: OFF switch for flavin mononucleotide
experimental_endpoint: apparent Kd

Reading of apparent Kd for GCACGGUAAGUGAGGAUAUACCUCUGGAUACAGAGGUAGAAGGCACAUGAGGAUCACCCAUGUCUCAGCCGUGC with MS2 coat protein: 78.2 nM

Reading of apparent Kd for AAGAAGGACGCAGGAUAUCCAGGACCUCCCGCAGGAGAAGGGCGAGACAUGUGGAUCACCCAGACAUGAGGAUCACCCAUGUAG with MS2 coat protein: 21 nM

Reading of apparent Kd for ACAAGAUCAGGAUAUACAUGAGGAUCACCCAUGUAUAUCAAAAAAGGGCCUUCUACAUGUAGAAGGGAUCUUGU with MS2 coat protein: 12.1 nM

Reading of apparent Kd for GAUAGGACAGAGAAGGACAUAGCUAGAGAUACUAGCAUAUGAACCUCUACAUGAGGAUCACCCAUGUAGGAUAUCUGUCCUAUC with MS2 coat protein: 6.21 nM

Reading of apparent Kd for GGUCGUCAAGUCAGGAUAUCGUUUAGUCGAUGUAACGAGAAGGGACAUGAGGAUCACCCAUGUCGUCUCAUCAG with MS2 coat protein: 24.8 nM

Reading of apparent Kd for GAGUGACAUGAGGAUCACCCAUGUGAGGAUAUCGGCCGGACCUUGUUAGCUUCCGCCGCGAGAAGGCACAUCGG with MS2 coat protein: 157 nM

Reading of apparent Kd for GAUCCUUAAGUCAGGAUAUCAAGCAAACUCUAAAUUGAGAAGGGACAUGAGGAUCACCCAUGUCACCGAAAUAA with MS2 coat protein: 16.2 nM

###

Provide the reported apparent Kd of each item.
Tested on: MS2 coat protein
Test: apparent Kd, MS2 coat protein; higher = weaker binding; RNA-MaP array
Details: ligand present: flavin mononucleotide; designed as: ON switch for flavin mononucleotide
Please reply with the bare figure in nM and do not write the unit itself.

For reference, reported apparent Kd for CCAUGGAGGACUGAGGAUAUUCGCAUAAGCACAUGAGGAUCACCCAUGUCAGAAAUAAAUCUCUAGAAGAAGGCAGCGCUAAGACA stands at 13.2

For reference, reported apparent Kd for GGAAUCGGAUUAGAGGAUAUCGAUCUGUUAACAUGAGGAUCACCCAUGUGGACGCUUCAUUCGAACGAGAAGGCUAGAUGGACACC stands at 16.8

For reference, reported apparent Kd for CUGCUCUGUACUGAAGGAGAUACAUGAGGAUCACCCAUGUGCAGAAGGUGCUCAUUAAUAAUCGGCAAGGAUAUGCGGGCUUGA stands at 390

For reference, reported apparent Kd for GCUAUAUUUGAGAAGGGAGGAUGCUUCACAGAGCUUAGACCAGACAUGAGGAUCACCCAUGUGCCUCAGGAUAUCAAUAUCGAU stands at 8.5

For reference, reported apparent Kd for UACUCACAUGAGGAUCACCCAUGUUGUCUCAAGAUAGGAUAUGACUGGCUAUGCAUCGGUUCAGAAGGAUCUUCUA stands at 11.3

For reference, reported apparent Kd for UCACUCUGCCGAGGAUAUGCUGGGUCUGACAUGAGGAUCACCCAUGUAACGGGCAGAGUGUUCCAGCAGAAGGCGGCCAGUACC stands at 44.6

For reference, reported apparent Kd for UCACAUGAGGAUCACCCAUGUAAAUCACACGACGGUGCUGUCAAGGAUAUGUUACGCUCAGGGCUACAGAAGGUGAUGGUCAAG stands at 25.2

For reference, reported apparent Kd for CUUGUACAUGAGGAUCACCCAUGUGUCCGUAUCAAAGGAUAUAGCAUAUUCGCAGUGGUGCUAGAAGGUUGUAUAC stands at 10.5

For reference, reported apparent Kd for CCGCGACAUGAGGAUCACCCAUGUGAUUUGACCUCCGGCACGAGAAGGUUCCGACCAAACGGCCGAAAGGAUAUCGUCCCAGAG stands at 38.6

For reference, reported apparent Kd for AUAGAACAUGAGGAUCACCCAUGUAGAAAAUCAGCAGGAUAUGUGAUCACUCCGUAAUUGACAGAAGGGCUAACAA stands at 28.8

For reference, reported apparent Kd for CUGCAGACCCAGAAGGUUCACAUGAGGAUCACCCAUGUGCCUAUCAAUAAGUAAGGUAAAGGCUGAAAGGAUAUGGGUAAAGGA stands at 8.47

For reference, reported apparent Kd for AAUAGAGAGCAGAAGGCCCUAGUUAUCGGCAUGGGAGGAUAUGCACCAGAUAAUAACAUGAGGAUCACCCAUGUUGAAUAAGAA stands at 6.46

For reference, reported apparent Kd for UACAUGAGGAUCACCCAUGUUUAUUGGUAGAACGGAUAAUGGGAGGAUAUGAACCGAUCAGAUCAUCAGAAGGCCCUUAAUGGG stands at 20

For reference, reported apparent Kd for AUCACAACCAAGAAGGGUCAGAUAACUCGAGAGACAGGAUAUUGAACAACAUAGUCAACAUGAGGAUCACCCAUGUAAAAUAAA stands at 24.2

For reference, reported apparent Kd for AACUGUAAUACAAGAACAUGAGGAUCACCCAUGUGUCGCGCAGAGGAUAUACUGGUUCGCUGUCCGUAGAAGGCUGAGCACAUG stands at 23.9

For reference, reported apparent Kd for AGCUCGUAGACAUGAGGAUCACCCAUGUAGAUCAAGAAAUUCAAGGAUAUUGGGAGUAAGCCGUGCAAGAAGGUGAGACUAGAU stands at 45.2

For reference, reported apparent Kd for GUAAAACUGUAAGGAUAUGAUGAACUUUAACCCUCAGAAGGAACACCACAUGAGGAUCACCCAUGUUAGGAAAGCAACUUGUUG stands at 13.8

For reference, reported apparent Kd for UAGCGACAUGAGGAUCACCCAUGUCCCGGCUACUAAGGAUAUGCAGUGAUUGAAAGGAAGGCAGAAGGUAGUGCAG stands at 12.7

For reference, reported apparent Kd for UGUAGACAUGAGGAUCACCCAUGUGCAACUGCAACAGGAUAUAGGGAGCGAUAGGAACGCCUAGAAGGGUUGAUCU stands at 24.6

For reference, reported apparent Kd for GCCUCGAACUCAGGAUAUCAGAGAGGUUGCCGCUGAGAAGGGAGACAUGAGGAUCACCCAUGUACAGUCAUGACCGUCGAGUUG stands at 84

For reference, reported apparent Kd for GACAGAAGGUAGAAGGUGGUUCUCCUCACCCACUUUGAGGACAUGAGGAUCACCCAUGUCAAAACCAAGGAUAUACUACGUCGU stands at 18.2

For reference, reported apparent Kd for UAAGAAGUCCAGAAGGUAGCCCUACCGUACAGCUAAGGAUAUGGCUCACCGGUUUCAACAUGAGGAUCACCCAUGUCCUCCCGG stands at 36.3

For reference, reported apparent Kd for UAACGUAGCCGAGGAUAUAGUAGCGAUCAACAGAAACAUGAGGAUCACCCAUGUGCCACAAAAGACUAGAAGGCGGGCAACCCA stands at 11.2

For reference, reported apparent Kd for UCAUGAAAGUCAGGAUAUGGCCACAUGAGGAUCACCCAUGUUUGCUUUAUCGAGCGAAACUGAGACCAGAAGGGACGGACAUUC stands at 11.1

For reference, reported apparent Kd for UGGGAUAGCCAGAAGGUGGAAGCAACAACUGUCCAAGGAUAUGGUUGUUAUAAGGCAUCACACAUGAGGAUCACCCAUGUUAAU stands at 35.2

For reference, reported apparent Kd for CGACAUAACCGAGGAUAUCGCUGACGUAAGCACAUGAGGAUCACCCAUGUGAGUGAGAGUGAGUACGAGAAGGCGGAAUUAAGG stands at 16.5

For reference, reported apparent Kd for GUACCUCCUCAGAAGGCGCGUAGAGCCGGCACAUGAGGAUCACCCAUGUCGAGGCGAAAUGCAGGCGAGGAUAUGAAGGGUUUC stands at 4.92

For reference, reported apparent Kd for GGAAAACCUCGAGGAUAUAGCACAUGAGGAUCACCCAUGUACCAUAAGUGUUGACAAAAGAGAGACUAGAAGGCGAAUCAAACC stands at 11.6
